System: OVCAR-4 ovarian
PROTOCOL_SUMMARY: NCI-60 one-dose screen, 48 h
REPORTED_CONDITIONS: 10 µM unless noted
This is part of a sample that, as a whole, favours compounds with a hit. Of some 83,000 tested, about 20% had one in any assay. Active and inactive are the calls of the source. The calls were made as follows: active = growth percent below 10; inactive = the rest.
Reply using exactly one outcome from YES (active), NO (inactive)

Oc1ccc(Cl)cc1Cc1cc(Cl)cc(Cl)c1O; NO
Cc1nc2ccccc2c(/C=C/c2ccc(Cl)cc2)c1C(=O)/C=C/c1ccc(C(F)(F)F)cc1; YES
c1ccc2c(c1)Nc1ccncc1S2; NO
CCOC(=O)c1sc2ncc(-c3ccc(OC)cc3)n2c1C; NO
COc1nc2ccc(C)cc2cc1-c1nc2c(cnn2-c2ccc(Br)cc2)c(=O)[nH]1; NO

Now look at this one.
Query block: Which outcome was assigned to NC(=O)C1(Nc2ccc(Br)cc2)CCCC1 in this test?
Result block: NO

----------
Tested on: UACC-62 melanoma
PROTOCOL_SUMMARY: NCI-60 one-dose screen, 48 h (100 = growth as untreated, 0 = no growth, -100 = all killed)
REPORTED_CONDITIONS: 10 µM unless noted
This is part of a sample that, as a whole, favours compounds with a hit. Of some 83,000 tested, about 20% had one in any assay.
MEASURED_PARAMETER: growth (%)
Answers are plain numbers, in %.

Field: example entries. Status: answers known.
COc1cc(Nc2nc(NCCN)nc3cc[nH]c(=O)c23)cc(OC)c1; 57.2
CCCCCCCCCCCCCCCCCCOc1ccc(CC(=O)OCC[N+](C)(C)C)cc1; 97.4
COC(=O)Nc1ccc(-c2nc(-c3cccc(OC)c3)c(-c3ccnc(Br)c3)[nH]2)cc1; 47.2
COc1ccc(OC)c(/C=C/C(=O)N/N=C/c2ccccc2)c1; 61
C/C=C(\C)C(=O)N[C@H]1[C@@H](OC(C)=O)C[C@]2(C)C3CC[C@@]4(C)C(CC[C@@H]4C(C)N(C)C)C3CCC2[C@H]1O (some centres undefined); 13.6

For each entry beneath this line, provide reported growth.
1. O=c1c2cc(F)ccc2sc2c(N3CCNCC3)nc3ccc(F)cc3c12
2. COc1ccc(N)c(N)c1
3. CCOc1cccc(NC2=C(Br)C(=O)C(C)=C(C)C2=O)c1

Result block:
0.994
93.6
81.5

----------
Answer each item with its documented growth.
Tested on: SNB-19 CNS
PROTOCOL_SUMMARY: NCI-60 one-dose screen, 48 h (100 = growth as untreated, 0 = no growth, -100 = all killed)
REPORTED_CONDITIONS: 10 µM unless noted
The panel holds about 83,000 compounds, 20% with a hit somewhere; the sample as a whole holds those more often.
Give bare numbers, in %.

COc1ccc(OC)c(/C=C/C(=O)N/N=C/c2ccccc2)c1; 47.9
C=C1CC[C@@]2(C#N)[C@H]3[C@H](CC[C@@H]2C)[C@@H](C)C[C@@H](CC(C)(C)C#N)[C@H]13; 56.4
OC(c1ccccc1)C(NC(Cc1ccccc1)c1ccccc1)c1ccccc1 (stereo unspecified); 87.6

For each entry beneath this line, provide reported growth.
1. COc1ccc(N2C(=O)C(Oc3ccccc3)C2c2ccc(C)cc2)cc1 (stereo unspecified)
2. OC(COc1ccccc1)CN1CCN(c2ccc(Cl)cc2)CC1 (stereo unspecified)
3. CCn1cnc2c1c(=O)[nH]c(=O)n2CC1CCC(CNS(=O)(=O)c2ccc(OC3CCOCC3)c(F)c2)CC1 (stereo unspecified)
4. CCN(CC)c1ccc(C2=NN(C(C)=O)C(c3cc(OC)c(OC)c(OC)c3)C2)cc1 (stereo unspecified)
5. Cc1nc(/N=C(\N)NC(=O)Nc2ccccc2Cl)sc1C
6. COC(=O)c1ccc2[nH]c(O)c(C(=Nc3ccc(N(C)C(=O)CN4CCN(C)CC4)cc3)c3ccccc3)c2c1
7. Cc1ccc(NC2=C(Cl)C(=O)c3nc(C)ccc3C2=O)cc1

Result block:
1. 101
2. 95.4
3. 59
4. 40.1
5. 44.2
6. 42.6
7. 47.3

----------
System: HOP-62 NSCLC
PROTOCOL_SUMMARY: NCI-60 one-dose screen, 48 h (100 = growth as untreated, 0 = no growth, -100 = all killed)
REPORTED_CONDITIONS: 10 µM unless noted
About 83,000 compounds went through this panel and 20% of them were active in at least one assay; those are over-represented in the sample as a whole.
Binary call on growth with cut-off 30%: strictly below means criterion met, and equality or higher means criterion not met.

Use these answered entries as a reference point.
Nc1nc(-c2cccc3ccccc23)cc2ccccc12; criterion met
CCCSc1nc2ccc(C)cc2cc1/C=[N+](\[O-])c1ccccc1; criterion met
COc1ccc(/C=C(\C#N)n2nnc3c(F)cccc32)cc1; criterion met
CCOC(=O)c1cn2ncnc(Oc3ccc(NC(=O)NCCN4CCOCC4)c(Cl)c3)c2c1C; criterion not met

Query block: Report whether reported growth is lower than 30% (strictly) for CC(C)n1cnc2c(Nc3cccc(Cl)c3)nc(N[C@H]3CCCC[C@@H]3N)nc21
Result block: criterion not met

Query block: Report whether reported growth is lower than 30% (strictly) for CCCCCCCCCCCCCCCCCCOc1ccc(CC(=O)OCC[N+]2(C)CCCCC2)cc1
Result block: criterion not met

----------
Answer each item with its documented growth.
System: PC-3 prostate
PROTOCOL_SUMMARY: NCI-60 one-dose screen, 48 h (100 = growth as untreated, 0 = no growth, -100 = all killed)
REPORTED_CONDITIONS: 10 µM unless noted
This is part of a sample that, as a whole, favours compounds with a hit. Of some 83,000 tested, about 20% had one in any assay. The source made the active and inactive calls. The calls were made as follows: active = growth percent below 10; inactive = the rest.

Field: example entries. Status: answers known.
COc1cc(C(=O)N2N=C(c3ccc(S(C)(=O)=O)cc3)CC2c2ccco2)cc(OC)c1OC (stereo not given); 51% (inactive)
N#Cc1c(-c2ccc(Cl)cc2)nc(NCCO)[nH]c1=O; 92.4% (inactive)
C[N+]1=C(/C=C/c2ccc(O)c3ncccc23)C(C)(C)c2ccccc21; 71.2% (inactive)
COc1cc2cc(Oc3ccc(NC(=O)Nc4ccc(F)c(C(F)(F)F)c4)cc3)c(C)nc2cc1OCCN1CCOCC1; 5.95% (active)
COc1nc2ccccc2cc1-c1nc2c(cnn2-c2ccccc2)c(=O)[nH]1; 41.2% (inactive)

For each entry beneath this line, provide reported growth.
1. CCc1ccc(Oc2c(-c3ccc(OCCc4cccc(C(F)(F)F)c4)cc3O)n[nH]c2C(F)(F)F)cc1
2. O=C(O)C(c1ccccc1)N1C(=O)CSC1=S (stereo not given)
3. [O-][n+]1c2ccccc2[n+]([O-])c2c3ccccc3[nH]c21
4. COc1ccccc1/C=C1\Oc2cc(OCCN3CCC(Cc4ccccc4)CC3)ccc2C1=O

Result block:
46.1% (inactive)
101% (inactive)
66.4% (inactive)
81.8% (inactive)

----------
Answer each item with its documented growth.
System: UACC-62 melanoma
PROTOCOL_SUMMARY: NCI-60 one-dose screen, 48 h (100 = growth as untreated, 0 = no growth, -100 = all killed)
REPORTED_CONDITIONS: 10 µM unless noted
Compounds without any hit were thinned out: in the full panel of roughly 83,000, 20% have a hit. Activity calls are given as the source filed them. The calls were made as follows: active = growth percent below 10; inactive = the rest.

Field: example entries. Status: answers known.
Cn1cc(C(=O)c2nc(-c3cn(C)c4ccc(F)cc34)no2)c2cc(F)ccc21; 88.4% (inactive)
c1cc(-c2nnc(SSc3ncnc4nc[nH]c34)o2)ccn1; 11.8% (inactive)
CCN1C(=O)N(CC)C2Nn3c(s/c(=C4\C(=O)Nc5ccccc54)c3=O)=NC21 (stereo unspecified); 46.6% (inactive)
O=C(CSc1nc2ccccc2[nH]1)Nc1cccc(Cl)c1; 87.6% (inactive)
O=C(Nc1nc2ccc(F)cc2s1)c1cccnc1Nc1ccc(Cl)cc1Cl; 20.1% (inactive)
Cc1ncc(C(=O)Nc2ccc(CN3CCN(C)CC3)c(C(F)(F)F)c2)cc1C#Cc1ccc(N)nc1; -70.2% (active)
CC([C@H]1CCC2C3CCC4C(=O)C(NC=O)=CC[C@]4(C)C3CC[C@@]21C)N(C)C (stereo partly specified); -39.7% (active)
O=c1c2cc(F)ccc2sc2c(NCCO)nc3ccccc3c12; 94.2% (inactive)

For each entry beneath this line, provide reported growth.
1. CCCCC[C@H](O)C/C=C1/C(=O)C=C[C@@H]1C/C=C\CCCC(=O)OC
2. CN1C(=O)N(C)C2Nn3c(s/c(=C\c4ccccc4)c3=O)=NC21 (stereo unspecified)

Result block:
1. 13.6% (inactive)
2. 90.9% (inactive)

For each entry beneath this line, provide reported growth.
1. O=c1ccc(N=Nc2ccc([N+](=O)[O-])cc2)ccc1O
2. Cc1c(C(=O)NCCN2CCOCC2)cn2ncnc(Oc3ccc(NC(=O)Nc4ccc(Cl)c(C(F)(F)F)c4)cc3)c12
3. O=C(Oc1cccc2ccccc12)Oc1cccc2ccccc12
4. COC(=O)CCC/C=C\C[C@H]1C=CC(=O)/C1=C/C[C@@H](O)CCc1cccc(C(F)(F)F)c1
5. COc1cc(/C=N/NC(=O)c2ccc(C)nc2)cc(OC)c1OC
6. N#Cc1c(Nc2cccc(Cl)c2)sc(C(=O)c2cc3cc(Cl)ccc3o2)c1N

Result block:
["15.2% (inactive)", "14.8% (inactive)", "103% (inactive)", "-60% (active)", "86.7% (inactive)", "78.6% (inactive)"]

For each entry beneath this line, provide reported growth.
1. CCCCCCCCCCCCCCCCCCOc1ccc(CC(=O)OCC[N+]2(C)CCCCC2)cc1
2. COc1nc2ccc(C)cc2cc1-c1nc2c(cnn2-c2ccccc2)c(=O)[nH]1
3. Cc1ccc(-c2nc(N3CCN(C(=O)Nc4ccc(Cl)c(C(F)(F)F)c4)CC3)c3ccccc3n2)cc1
4. CNc1nc2c(s1)C(c1cccc(F)c1)CC(=O)N2 (stereo unspecified)
5. COc1cc(/C=C/C(=O)/C=C/c2cc(OC)c3c(c2OC)OCO3)c(OC)c2c1OCO2

Result block:
1: 88.8% (inactive); 2: 60.2% (inactive); 3: 70% (inactive); 4: 92.3% (inactive); 5: 25.5% (inactive)
